The measured values listed here are drawn from paper PMC9687610.

- Test system: Staphylococcus aureus subsp. aureus methicillin-resistant (MRSA) CCM 4750 (ATCC 43300)
- test.protocol: Antibacterial microdilution broth (EUCAST), MRSA
- Assay type: cell-based
- test.settings: Staphylococcus aureus; read after 24 h; read-out: MRSA MIC
MIC reference
quantity.name: MIC

> print(dat)
                                    compound                        measurement.target  observed
 1                   CCCC(=O)Nc1nccnc1C(N)=O  Staphylococcus aureus subsp. aureus methicillin-resistant (MRSA) CCM 4750 (ATCC 43300)  > 500 µM
 2      NC(=O)c1nccnc1NC(=O)c1cc(Cl)cc(Cl)c1  Staphylococcus aureus subsp. aureus methicillin-resistant (MRSA) CCM 4750 (ATCC 43300)  > 500 µM
 3            NC(=O)c1nccnc1NC(=O)CCc1ccccc1  Staphylococcus aureus subsp. aureus methicillin-resistant (MRSA) CCM 4750 (ATCC 43300)  > 500 µM
 4  COC(=O)c1nccnc1NC(=O)c1ccccc1Br [Compound 16e]  Staphylococcus aureus subsp. aureus methicillin-resistant (MRSA) CCM 4750 (ATCC 43300)  > 500 µM
 5          NC(=O)c1nccnc1NC(=O)c1ccc(Br)cc1  Staphylococcus aureus subsp. aureus methicillin-resistant (MRSA) CCM 4750 (ATCC 43300)  > 500 µM
 6      NC(=O)c1nccnc1NC(=O)c1ccccc1C(F)(F)F  Staphylococcus aureus subsp. aureus methicillin-resistant (MRSA) CCM 4750 (ATCC 43300)  > 500 µM
 7                CCCCCCC(=O)Nc1nccnc1C(N)=O  Staphylococcus aureus subsp. aureus methicillin-resistant (MRSA) CCM 4750 (ATCC 43300)  > 125 µM
 8          COC(=O)c1nccnc1NC(=O)c1ccc(C)cc1  Staphylococcus aureus subsp. aureus methicillin-resistant (MRSA) CCM 4750 (ATCC 43300)  > 500 µM
 9      CN(C)C(=O)c1nccnc1NC(=O)c1ccc(Cl)cc1  Staphylococcus aureus subsp. aureus methicillin-resistant (MRSA) CCM 4750 (ATCC 43300)  > 500 µM
10          NC(=O)c1nccnc1NC(=O)c1cccc(Br)c1  Staphylococcus aureus subsp. aureus methicillin-resistant (MRSA) CCM 4750 (ATCC 43300)  > 125 µM
11         Cc1ccc(-c2nc3nccnc3c(=O)[nH]2)cc1  Staphylococcus aureus subsp. aureus methicillin-resistant (MRSA) CCM 4750 (ATCC 43300)  > 125 µM
